# assay.method.text: Oral bioavailability in mouse at 2 mg/kg
# Type: ADME, organism-based
# condition.description: in vivo
observable: bioavailability (%)
State just the number; it will be interpreted in %.

Input COc1ccc2cc(-c3cc(-c4cc(Cl)cc(Cl)c4)nn3[C@@H](C)c3ccc(C(=O)NCCC(=O)O)cc3)ccc2c1 [MK-0893] . Output bioavailability: 37

---

# assay.method.text: Plasma protein binding in monkey
# Assay type: ADME, cell-free, Macaca mulatta
# condition.description: rhesus monkey, read-out: PPB
observable: fraction unbound

Input COc1ccc2cc(-c3cc(-c4cc(Cl)cc(Cl)c4)nn3[C@@H](C)c3ccc(C(=O)NCCC(=O)O)cc3)ccc2c1 [MK-0893] . Output fraction unbound: < 0.01

---

Hi there, I'd appreciate the recorded IC50 for every entry that follows.
# tested.system: Glucagon receptor (Homo sapiens, UniProt P47871)
# Sequence (P47871 whole entry): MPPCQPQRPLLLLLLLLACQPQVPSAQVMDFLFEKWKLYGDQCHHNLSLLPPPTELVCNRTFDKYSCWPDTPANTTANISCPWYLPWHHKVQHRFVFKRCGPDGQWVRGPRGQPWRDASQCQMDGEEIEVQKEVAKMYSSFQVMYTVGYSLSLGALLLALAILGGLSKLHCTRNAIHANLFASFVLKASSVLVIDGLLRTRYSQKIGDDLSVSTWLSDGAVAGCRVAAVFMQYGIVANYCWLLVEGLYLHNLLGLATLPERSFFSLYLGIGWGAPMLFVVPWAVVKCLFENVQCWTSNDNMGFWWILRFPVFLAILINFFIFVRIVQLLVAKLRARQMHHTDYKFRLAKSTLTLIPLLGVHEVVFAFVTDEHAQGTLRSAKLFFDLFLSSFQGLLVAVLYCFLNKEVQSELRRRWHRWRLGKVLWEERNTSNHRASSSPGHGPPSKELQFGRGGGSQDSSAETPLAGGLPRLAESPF
# assay.method.text: Antagonist activity at human GCGR expressed in CHO cells assessed as inhibition of glucagon-induced cAMP accumulation preincubated for 30 mins prior to glucagon challenge measured after 30 mins post glucagon challenge by liquid scintillation counter
# Format: functional, cell-based
Your reply should be a number followed by the unit it is expressed in.

Input "COc1ccc2cc(-c3cc(-c4cc(C(F)(F)F)ccc4C)nn3[C@@H](C)c3ccc(C(=O)NCCC(=O)O)cc3)ccc2c1" . Output IC50: 27.4 nM

Input "COc1ccc2cc(-c3cc(-c4cc(Cl)cc(Cl)c4)nn3Cc3ccc(C(=O)NCCC(=O)O)cc3)ccc2c1" . Output IC50: 90.9 nM

Input "COc1ccc2cc(-c3cc(C(F)(F)F)nn3[C@@H](C)c3ccc(C(=O)NCCC(=O)O)cc3)ccc2c1" . Output IC50: 63.1 nM

Input "COc1ccc2cc(-c3cc(-c4cc(Cl)cc(C(F)(F)F)c4)nn3[C@@H](C)c3ccc(C(=O)NCCC(=O)O)cc3)ccc2c1" . Output IC50: 5.7 nM

---

# assay.method.text: Volume of distribution at steady state in dog at 0.5 mg/kg, iv and 0.5 mg/kg, po
# Type: ADME, organism-based, Canis lupus familiaris
# condition.description: in vivo, read-out: Vdss
observable: Vd (L/kg)
State just the number; it will be interpreted in L/kg.

Input "COc1ccc2cc(-c3cc(-c4cc(Cl)cc(Cl)c4)nn3[C@@H](C)c3ccc(C(=O)NCCC(=O)O)cc3)ccc2c1" . Output Vd: 0.27

---

# tested.system: Vasoactive intestinal polypeptide receptor 2 (Homo sapiens)
# Sequence (P41587 whole entry): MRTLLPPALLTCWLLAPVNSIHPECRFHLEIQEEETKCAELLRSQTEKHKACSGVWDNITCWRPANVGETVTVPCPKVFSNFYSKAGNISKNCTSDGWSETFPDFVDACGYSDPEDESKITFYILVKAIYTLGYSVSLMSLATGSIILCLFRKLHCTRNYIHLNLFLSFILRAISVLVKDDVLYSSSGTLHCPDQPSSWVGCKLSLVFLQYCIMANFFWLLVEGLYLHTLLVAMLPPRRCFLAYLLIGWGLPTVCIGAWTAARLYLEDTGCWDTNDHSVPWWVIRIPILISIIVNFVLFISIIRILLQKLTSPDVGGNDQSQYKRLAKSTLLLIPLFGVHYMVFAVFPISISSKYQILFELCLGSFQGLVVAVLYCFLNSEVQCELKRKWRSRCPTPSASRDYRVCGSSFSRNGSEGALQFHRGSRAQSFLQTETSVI
# assay.method.text: Antagonist activity at human VPAC2 expressed in CHO cells assessed as inhibition of glucagon-induced cAMP accumulation preincubated for 30 mins prior to glucagon challenge measured after 30 mins post glucagon challenge by liquid scintillation counter
observable: IC50 (nM)
State just the number; it will be interpreted in nM.

IC50 for Vasoactive intestinal polypeptide receptor 2 (Homo sapiens) with input "COc1ccc2cc(-c3cc(-c4cc(Cl)ccc4Cl)nn3[C@@H](C)c3ccc(C(=O)NCCC(=O)O)cc3)ccc2c1" equals 2600

IC50 for Vasoactive intestinal polypeptide receptor 2 (Homo sapiens) with input "COc1ccc2cc(-c3cc(-c4cc(Cl)cc(C(F)(F)F)c4)nn3[C@@H](C)c3ccc(C(=O)NCCC(=O)O)cc3)ccc2c1" equals 2600

IC50 for Vasoactive intestinal polypeptide receptor 2 (Homo sapiens) with input "COc1ccc2cc(-c3cc(-c4ccc(Cl)c(Cl)c4)nn3[C@@H](C)c3ccc(C(=O)NCCC(=O)O)cc3)ccc2c1" equals 1700

IC50 for Vasoactive intestinal polypeptide receptor 2 (Homo sapiens) with input "COc1ccc2cc(-c3cc(-c4cc(Cl)cc(Cl)c4)nn3[C@@H](C)c3ccc(C(=O)NCCC(=O)O)cc3)ccc2c1" equals 12800

---

observable: pIC50
Remember the convention: pIC50 equals -log10 of concentration in molar.

pIC50 for Cytochrome P450 2C9 (Homo sapiens, UniProt P11712) with input "COc1ccc2cc(-c3cc(-c4cc(Cl)cc(Cl)c4)nn3[C@@H](C)c3ccc(C(=O)NCCC(=O)O)cc3)ccc2c1" equals 4.85

---

# assay.method.text: Drug uptake in mouse expressing human GCGR at 3 mg/kg, po measured at 60 mins
# Assay type: ADME, organism-based
# Design: dose 3 mg/kg, route oral
# condition.description: in vivo, read-out: Drug uptake
observable: concentration at 1 h (µM)
State just the number; it will be interpreted in µM.

Input "COc1ccc2cc(-c3cc(-c4cc(Cl)cc(Cl)c4)nn3[C@@H](C)c3ccc(C(=O)NCCC(=O)O)cc3)ccc2c1" . Output concentration at 1 h: 0.26

---

# tested.system: Glucagon receptor (Mus musculus)
# Sequence (Q61606 whole entry): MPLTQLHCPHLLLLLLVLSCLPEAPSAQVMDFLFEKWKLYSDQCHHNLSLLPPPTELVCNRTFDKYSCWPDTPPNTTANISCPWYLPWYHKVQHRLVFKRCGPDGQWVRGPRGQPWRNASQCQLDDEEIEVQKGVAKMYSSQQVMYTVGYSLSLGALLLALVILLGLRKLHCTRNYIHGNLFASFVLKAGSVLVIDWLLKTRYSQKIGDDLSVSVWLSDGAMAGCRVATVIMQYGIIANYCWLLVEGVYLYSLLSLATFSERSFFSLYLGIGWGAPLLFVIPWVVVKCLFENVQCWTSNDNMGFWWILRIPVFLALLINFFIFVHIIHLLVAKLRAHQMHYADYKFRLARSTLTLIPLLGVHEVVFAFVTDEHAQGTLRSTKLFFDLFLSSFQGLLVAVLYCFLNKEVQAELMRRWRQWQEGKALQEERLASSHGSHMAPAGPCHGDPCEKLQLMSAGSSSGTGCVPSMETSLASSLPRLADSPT
# assay.method.text: Antagonist activity at mouse GCGR expressed in CHO cells assessed as inhibition of glucagon-induced cAMP accumulation preincubated for 30 mins prior to glucagon challenge measured after 30 mins post glucagon challenge by liquid scintillation counter
observable: pIC50
Remember the convention: pIC50 equals -log10 of concentration in molar.

Input "COc1ccc2cc(-c3cc(-c4cc(Cl)cc(Cl)c4)nn3[C@@H](C)c3ccc(C(=O)NCCC(=O)O)cc3)ccc2c1" . Output pIC50: 6.91

---

# System: Plasma
# assay.method.text: Plasma concentration in DIO mouse expressing human GCGR at 3 mg/kg/day measured on day 5
# Assay type: ADME, organism-based
# condition.description: in vivo
observable: concentration (nM)
State just the number; it will be interpreted in nM.

Input "COc1ccc2cc(-c3cc(-c4cc(Cl)cc(Cl)c4)nn3[C@@H](C)c3ccc(C(=O)NCCC(=O)O)cc3)ccc2c1" . Output concentration: 410

---

# assay.method.text: Plasma clearance in mouse at 1 mg/kg, iv and 2 mg/kg, po
# Type: ADME, organism-based
observable: clearance (mL/min/kg)
State just the number; it will be interpreted in mL/min/kg.

Input "COc1ccc2cc(-c3cc(-c4cc(Cl)cc(Cl)c4)nn3[C@@H](C)c3ccc(C(=O)NCCC(=O)O)cc3)ccc2c1" . Output clearance: 5.4

---

Hi there, I'd appreciate the recorded IC50 for every entry that follows.
# tested.system: Glucagon receptor (Homo sapiens)
# assay.method.text: Displacement of [125I]glucagon from human GCGR expressed in CHO cells after 3 hrs by scintillation proximity assay
# Type: cell-based
Your reply should be a number followed by the unit it is expressed in.

Input "CCCOc1cc(Cl)cc(-c2cc(-c3ccc4cc(OC)ccc4c3)n([C@@H](C)c3ccc(C(=O)NCCC(=O)O)cc3)n2)c1" . Output IC50: 6.9 nM

Input "COc1ccc2cc(-c3cc(-c4ccc(Cl)c(Cl)c4)nn3[C@@H](C)c3ccc(C(=O)NCCC(=O)O)cc3)ccc2c1" . Output IC50: 5.2 nM

Input "C[C@H](c1ccc(C(=O)NCCC(=O)O)cc1)n1nc(-c2cc(Cl)cc(Cl)c2)cc1-c1ccc2cc(OC(F)(F)F)ccc2c1" . Output IC50: 16.6 nM

Input "CC(C)c1ccc2cc(-c3cc(-c4cc(Cl)cc(Cl)c4)nn3[C@@H](C)c3ccc(C(=O)NCCC(=O)O)cc3)ccc2c1" . Output IC50: 4.3 nM

Input "O=C(O)CCNC(=O)c1ccc(Cn2nc(-c3cc(Cl)cc(Cl)c3)cc2-c2ccc3ccccc3c2)cc1" . Output IC50: 60.6 nM

Input "O=C(O)CCNC(=O)c1ccc(Cn2nc(-c3cc(Cl)cc(Cl)c3)cc2-c2cccc(OC(F)(F)F)c2)cc1" . Output IC50: 234 nM

Input "O=C(O)CCNC(=O)c1ccc(Cn2nc(-c3cc(Cl)cc(Cl)c3)cc2-c2ccc3cc(OC(F)(F)F)ccc3c2)cc1" . Output IC50: 8.1 nM

Input "COc1ccc2cc(-c3cc(-c4cc(Cl)cc(Cl)c4)nn3Cc3ccc(C(=O)NCCC(=O)O)cc3)ccc2c1" . Output IC50: 15.6 nM

Input "COc1ccc2cc(-c3cc(C(C)(C)C)nn3[C@@H](C)c3ccc(C(=O)NCCC(=O)O)cc3)ccc2c1" . Output IC50: 81.8 nM

Input "COc1ccc2cc(-c3cc(-c4cc(Cl)cc(C(F)(F)F)c4)nn3[C@@H](C)c3ccc(C(=O)NCCC(=O)O)cc3)ccc2c1" . Output IC50: 1.9 nM

Input "CCCOc1ccc(-c2cc(-c3cc(Cl)cc(Cl)c3)nn2Cc2ccc(C(=O)NCCC(=O)O)cc2)cc1Cl" . Output IC50: 37.9 nM

Input "C[C@@H](c1ccc(C(=O)NCCC(=O)O)cc1)n1nc(-c2cc(Cl)cc(Cl)c2)cc1-c1ccc2cc(OC(F)(F)F)ccc2c1" . Output IC50: 2.5 nM

Input "CCOc1ccc2cc(-c3cc(-c4cc(Cl)cc(Cl)c4)nn3[C@@H](C)c3ccc(C(=O)NCCC(=O)O)cc3)ccc2c1" . Output IC50: 8.1 nM

Input "COc1ccc2cc(-c3cc(-c4cc(C(F)(F)F)ccc4F)nn3[C@@H](C)c3ccc(C(=O)NCCC(=O)O)cc3)ccc2c1" . Output IC50: 4.1 nM

Input "COc1ccc2cc(-c3cc(-c4cc(C(F)(F)F)ccc4C)nn3[C@@H](C)c3ccc(C(=O)NCCC(=O)O)cc3)ccc2c1" . Output IC50: 9.3 nM

Input "Cc1ccc2cc(-c3cc(-c4cc(Cl)cc(Cl)c4)nn3[C@@H](C)c3ccc(C(=O)NCCC(=O)O)cc3)ccc2c1" . Output IC50: 4.6 nM
